biological target: human TPO receptor (c-mp1) (Homo sapiens); construct: expressed in transfected cells; experiment: Stimulation of proliferation of TPO-dependent cell line UT7/EPO-mpl (WST-8); type: cell-based; conditions: concentration that yields a growth rate corresponding to 50% of the growth of UT-7/EPO-mpl observed in the presence of 10 ng/ml TPO; 4 days incubation; read-out: EC50 (converted)
measured_property: EC50 (nM)

Here's what some known entries look like.
>  <compound>
CC(=NNC(=S)N1CCC(C(=O)O)CC1)c1csc(-c2ccc(C(C)(C)C)cc2)c1O [Synthetic Example 14]

>  <EC50 / nM>
5.66

$$$$
>  <compound>
CCN(CC)C(=O)C1CCN(C(=S)NN=C(C)c2csc(-c3ccc(Cl)c(Cl)c3)c2O)CC1 [Synthetic Example 19]

>  <EC50 / nM>
49.3

$$$$
>  <compound>
COC(=O)C1CCN(C(=S)NN=C(C)c2csc(-c3ccc(Br)cc3)c2O)CC1 [Synthetic Example 8]

>  <EC50 / nM>
50.4

$$$$
>  <compound>
CC(=NNC(=S)N1CCC(O)CC1)c1csc(-c2ccc(Cl)c(Cl)c2)c1O [Synthetic Example 20]

>  <EC50 / nM>
6.98

$$$$
>  <compound>
CC(=NNC(=S)N1CCC(C(=O)O)CC1)c1csc(-c2cccc(Cl)c2)c1O [Synthetic Example 15]

>  <EC50 / nM>
5.94

$$$$

1: CC(=NNC(=S)N1CCC(C(=O)O)CC1)c1csc(-c2ccc(OC(F)(F)F)cc2)c1O [Synthetic Example 11]
2: CC(=NNC(=S)N1CCCC(C(=O)O)C1)c1csc(-c2ccc(Cl)c(Cl)c2)c1O (stereo not shown) [Synthetic Example 18]
Which numeric EC50 is bigger, that of 1 or that of 2 ? API: response body contains the label of the selected item.
2

###

Molecular target: human TPO receptor (c-mp1) (Homo sapiens)
Construct: expressed in transfected cells
Sequence (P40238 26-635): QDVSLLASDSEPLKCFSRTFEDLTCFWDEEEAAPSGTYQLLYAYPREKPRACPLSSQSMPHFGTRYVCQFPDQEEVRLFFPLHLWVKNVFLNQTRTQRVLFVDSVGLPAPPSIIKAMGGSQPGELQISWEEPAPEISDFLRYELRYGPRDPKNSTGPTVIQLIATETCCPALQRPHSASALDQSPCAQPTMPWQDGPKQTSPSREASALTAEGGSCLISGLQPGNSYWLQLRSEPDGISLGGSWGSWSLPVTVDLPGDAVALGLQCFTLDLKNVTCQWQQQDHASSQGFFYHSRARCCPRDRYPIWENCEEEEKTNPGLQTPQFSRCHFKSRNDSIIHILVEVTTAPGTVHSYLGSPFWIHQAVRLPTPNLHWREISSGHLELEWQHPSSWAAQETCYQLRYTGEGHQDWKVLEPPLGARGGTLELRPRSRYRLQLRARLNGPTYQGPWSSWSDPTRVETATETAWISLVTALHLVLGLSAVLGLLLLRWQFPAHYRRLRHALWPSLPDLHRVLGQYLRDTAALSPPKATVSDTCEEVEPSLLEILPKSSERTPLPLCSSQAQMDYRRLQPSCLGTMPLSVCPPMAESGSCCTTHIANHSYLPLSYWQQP
Experiment: Stimulation of proliferation of TPO-dependent cell line UT7/EPO-mpl (WST-8)
Format: cell-based
Conditions: concentration that yields a growth rate corresponding to 50% of the growth of UT-7/EPO-mpl observed in the presence of 10 ng/ml TPO; 4 days incubation; read-out: EC50 (converted)
measured_property: EC50 (nM)

Here's what some known entries look like.
>  <compound>
COCCNC(=S)NN=C(C)c1csc(-c2ccc(Cl)c(Cl)c2)c1O [Synthetic Example 7]

>  <measured_property>
EC50

>  <measure_unit>
nM

>  <experimental_result>
66.9

$$$$
>  <compound>
CC(=NNC(=S)N1CCC(C(=O)O)CC1)c1csc(-c2ccc(C(F)(F)F)cc2)c1O [Synthetic Example 10]

>  <measured_property>
EC50

>  <measure_unit>
nM

>  <experimental_result>
5.73

$$$$

a: CC(=NNC(=S)N1CCC(C(=O)O)CC1)c1nn(C)c(-c2ccc(C(F)(F)F)cc2)c1O [Synthetic Example 16]
b: COC(=O)C1CCN(C(=S)NN=C(C)c2csc(-c3ccc(Cl)c(Cl)c3)c2O)CC1 [Synthetic Example 1]
Parameter metric = EC50. Return the lower-valued option from a and b . API: response body contains the label of the selected item.
a
(a: 8.09 nM, b: 63.7 nM)
